target: EGFR wild type (Homo sapiens, UniProt P00533); construct: purchased Carna Bio; test: Inhibition of EGFR wild type biochemical enzymatic activity (HTRF); details: EGFR WT, 1 mM ATP, 1 h, room temperature, read-out: IC50 (nM) @WT
Sequence (P00533 25-1210): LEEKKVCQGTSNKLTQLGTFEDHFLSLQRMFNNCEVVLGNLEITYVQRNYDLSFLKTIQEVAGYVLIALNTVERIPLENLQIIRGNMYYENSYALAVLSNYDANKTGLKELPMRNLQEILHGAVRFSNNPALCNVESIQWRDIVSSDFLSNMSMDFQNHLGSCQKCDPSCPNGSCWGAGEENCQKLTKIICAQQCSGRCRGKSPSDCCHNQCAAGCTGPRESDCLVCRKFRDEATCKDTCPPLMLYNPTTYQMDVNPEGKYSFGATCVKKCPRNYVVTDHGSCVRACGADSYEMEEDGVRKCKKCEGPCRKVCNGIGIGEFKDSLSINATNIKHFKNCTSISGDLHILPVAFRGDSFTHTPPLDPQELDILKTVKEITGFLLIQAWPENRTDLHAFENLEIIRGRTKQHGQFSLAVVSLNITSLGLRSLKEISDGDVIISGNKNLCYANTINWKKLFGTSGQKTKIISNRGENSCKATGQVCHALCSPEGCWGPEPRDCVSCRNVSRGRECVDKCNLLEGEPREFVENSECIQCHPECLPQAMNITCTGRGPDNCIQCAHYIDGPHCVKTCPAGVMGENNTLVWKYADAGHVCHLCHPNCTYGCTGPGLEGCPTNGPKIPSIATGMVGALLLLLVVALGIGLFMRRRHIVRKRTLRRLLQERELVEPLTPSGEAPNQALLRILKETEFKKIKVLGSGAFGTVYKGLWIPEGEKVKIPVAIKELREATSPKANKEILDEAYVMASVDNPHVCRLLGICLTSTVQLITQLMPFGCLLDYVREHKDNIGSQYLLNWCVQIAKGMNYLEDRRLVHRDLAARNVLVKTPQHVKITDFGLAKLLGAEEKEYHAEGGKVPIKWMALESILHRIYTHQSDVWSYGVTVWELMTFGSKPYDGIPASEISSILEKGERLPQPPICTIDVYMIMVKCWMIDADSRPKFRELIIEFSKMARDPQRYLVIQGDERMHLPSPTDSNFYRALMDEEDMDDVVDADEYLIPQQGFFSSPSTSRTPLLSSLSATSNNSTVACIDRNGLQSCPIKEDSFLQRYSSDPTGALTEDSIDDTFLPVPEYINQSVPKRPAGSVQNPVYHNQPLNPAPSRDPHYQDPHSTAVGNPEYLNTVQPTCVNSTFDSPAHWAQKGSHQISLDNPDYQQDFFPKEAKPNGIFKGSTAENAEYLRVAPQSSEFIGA
ATTRIBUTE_MEASURED: IC50 (nM)

[P] CN1CCC2(CC1)CCN(c1ccc3nc4n(c3c1)C13CCC(CN(CCOc5c(cnn5C)-c5cc(cn(C)c5=O)C(=O)N4)C1)C3)C2 (single isomer, unassigned) [Example A88B]
[Q] C[C@@H]1CCCOc2c(cnn2C)-c2cc(cn(C)c2=O)C(=O)Nc2nc3ccc(N4CC(N(C)C)C4)cc3n2C1 [Example A37]
Query block: // pick min by IC50: P , Q Write the label of whichever entry you select.
Result block: P
(P: 12 nM, Q: 281 nM)
